# Test system: lipid peroxidation in homogenate of murine swiss 3T3 cells
# Assay overview: Inhibitory effects on UV-induced lipid peroxidation (homogenate of murine swiss 3T3 cells)
# Format: biochemical
# Settings: 1 mM test compound; UVB 0.4 mW/cm^2, 90 min; pH 7.2 to 7.8; TBA, 535 nm
Value type: % Inhibition of UV-induced lipid peroxidation (%)
State just the number; it will be interpreted in %.

Guide cases for % Inhibition of UV-induced lipid peroxidation, answers given:
Query :: Look at this compound and give its reported % Inhibition of UV-induced lipid peroxidation. O=C(O)C(Cc1ccccc1)NCc1ccccc1O (centres unmarked) [Synthesis Example 7]
Result :: 48

Query :: Data request, read-out % Inhibition of UV-induced lipid peroxidation, for O=C(O)CN(CCN(CC(=O)O)CC(=O)O)CC(=O)O [EDTA, reference compound]
Result :: 34

Query :: Find the recorded % Inhibition of UV-induced lipid peroxidation belonging to O=C(O)CNCc1ccccc1O [Synthesis Example 9] and report it.
Result :: 60

Query :: Which % Inhibition of UV-induced lipid peroxidation value belongs to O=C(O)CCC(NCc1ccccc1O)C(=O)O (centres unmarked) [Synthesis Example 5] ?
Result :: 52

We next turn to a different compound, shown below.
Query :: I'd like to know its % Inhibition of UV-induced lipid peroxidation. The compound in question is O=C(O)C(CO)N=Cc1c(O)ccc2ccccc12 (centres unmarked) [Synthesis Example 28]
Result :: 20

====

# Assay overview: UV absorptive activities
# Format: physicochemical
# Settings: 100 μM in ethanol (water or DMSO added if not soluble); UVA and UVB regions
Structures can show the parent of a compound that is named as a salt.
Value type: Maximum molar extinction coefficient

Record excerpt, results attached:
Query :: So what does the record say about Maximum molar extinction coefficient for Cc1ncc(CO)c(CNC(CO)C(=O)O)c1O (stereo not drawn) [Synthesis Example 18] ?
Result :: 3,500

Query :: # input compound: Cc1ncc(CO)c(CNC(Cc2c[nH]cn2)C(=O)O)c1O (stereo not drawn) [Synthesis Example 22] ; wanted: its Maximum molar extinction coefficient
Result :: 5,300

Query :: Which Maximum molar extinction coefficient value is on record for Cc1ncc(CO)c(C=NC(CO)C(=O)O)c1O (stereo not drawn) [Synthesis Example 69] ?
Result :: 3,000

Query :: Which Maximum molar extinction coefficient is reported for this compound? O=C(O)[C@H](Cc1c[nH]cn1)N=Cc1c(O)ccc2ccccc12 [Synthesis Example 27, N-(2-hydroxy-1-naphthal)-L-histidine]
Result :: 7,000

Query :: Please give the measured Maximum molar extinction coefficient for this compound: O=C(O)C(CO)N=Cc1c(O)ccc2ccccc12 (stereo not drawn) [Synthesis Example 28]
Result :: 10,000

Further cases:
Query :: Maximum molar extinction coefficient lookup needed for Cc1ncc(CO)c(C=N[C@@H](Cc2c[nH]cn2)C(=O)O)c1O [Synthesis Example 68, N-pyridoxilidene-L-histidine-sodium salt] , thanks.
Result :: 4,300

====

# Tested on: lipid peroxidation in murine brain homogenate
# Assay overview: Inhibitory effects on metal ion-induced lipid peroxidation (murine brain homogenate)
# Assay type: biochemical, murine (C57 black mouse)
# Settings: 1 mM test compound; 100 μM ammonium iron (II) sulphate; 37° C., 30 minutes; pH 7.2 to 7.8
Measured % Inhibition of metal ion-induced lipid peroxidation by item
Report as: number unit

Some compounds with recorded % Inhibition of metal ion-induced lipid peroxidation:
Query :: Any idea what % Inhibition of metal ion-induced lipid peroxidation was measured for NC(=O)CC(N=Cc1c(O)ccc2ccccc12)C(=O)O (stereo not drawn) [Synthesis Example 44] ?
Result :: 90%

Query :: Please give the measured % Inhibition of metal ion-induced lipid peroxidation for this compound: O=C(O)C(CO)N=Cc1cc(Br)ccc1O (stereo not drawn) [Synthesis Example 58]
Result :: 40%

Query :: Look up % Inhibition of metal ion-induced lipid peroxidation for this compound: CC(N=Cc1c(O)ccc2ccccc12)C(=O)O (stereo not drawn) [Synthesis Example 36]
Result :: 80%

Query :: I'd like to know its % Inhibition of metal ion-induced lipid peroxidation. The compound in question is O=C(O)[C@H](Cc1c[nH]cn1)N=Cc1c(O)ccc2ccccc12 [Synthesis Example 27, N-(2-hydroxy-1-naphthal)-L-histidine]
Result :: 87%

Query :: If you can, please state the reported % Inhibition of metal ion-induced lipid peroxidation value of OCC(Cc1c[nH]cn1)N=Cc1c(O)ccc2ccccc12 (stereo not drawn) [Synthesis Example 33] .
Result :: 95%

Query :: I have this compound here, O=C(O)C(CCO)NCc1ccccc1O (stereo not drawn) [Synthesis Example 3] , and I need its recorded % Inhibition of metal ion-induced lipid peroxidation.
Result :: 21%

Query :: # % Inhibition of metal ion-induced lipid peroxidation lookup, item CC(C)C(N=Cc1cc(Cl)ccc1O)C(=O)O (stereo not drawn) [Synthesis Example 64]
Result :: 60%

Query :: // returns reported % Inhibition of metal ion-induced lipid peroxidation for input Cc1ncc(CO)c(C=NC(Cc2ccc(O)cc2)C(=O)O)c1O (stereo not drawn) [Synthesis Example 70]
Result :: 27%

Further cases:
Query :: Endpoint output: % Inhibition of metal ion-induced lipid peroxidation of O=C(O)CC(N=Cc1c(O)ccc2ccccc12)C(=O)O (stereo not drawn) [Synthesis Example 43] . Value?
Result :: 40%

Query :: For Oc1ccc2ccccc2c1C=NCCc1c[nH]c2ccccc12 [Synthesis Example 56] , what is its reported % Inhibition of metal ion-induced lipid peroxidation?
Result :: 57%

Query :: Requested field: % Inhibition of metal ion-induced lipid peroxidation. Item: CC(C)C(CO)N=Cc1c(O)ccc2ccccc12 (stereo not drawn) [Synthesis Example 37]
Result :: 30%

Query :: For the compound shown here, CSCCC(N=Cc1c(O)ccc2ccccc12)C(=O)O (stereo not drawn) [Synthesis Example 42] , give the reported % Inhibition of metal ion-induced lipid peroxidation.
Result :: 86%

Query :: Given the entry CC(O)C(N=Cc1c(O)ccc2ccccc12)C(=O)O (stereo not drawn) [Synthesis Example 41] , report its measured % Inhibition of metal ion-induced lipid peroxidation.
Result :: 79%

Query :: # % Inhibition of metal ion-induced lipid peroxidation lookup, item O=C(O)C(Cc1c[nH]cn1)N=Cc1cc(Br)ccc1O (stereo not drawn) [Synthesis Example 62]
Result :: 45%

Query :: Could you tell me which % Inhibition of metal ion-induced lipid peroxidation is on file for O=C(O)C(CO)N=Cc1cc([N+](=O)[O-])ccc1O (stereo not drawn) [Synthesis Example 59] ?
Result :: 11%
